System: MIA PaCa-2
Experiment: Growth inhibition of human MIAPaCa2 at 10 uM after 48 hrs by SRB assay relative to control
Format: functional
Conditions: MIA PaCa-2, 48 h, read-out: GI

STRUCTURE_STRING	inhibition of growth at 10 µM, %
C=C(C)[C@@H]1CC[C@]2(C(=O)O)CC[C@]3(C)[C@H](CC[C@@H]4[C@@]5(C)C/C(=C\c6ccc(F)cc6)[C@H](O)C(C)(C)[C@@H]5CC[C@]43C)[C@@H]12	78
C=C(C)[C@@H]1CC[C@]2(C(=O)O)CC[C@]3(C)[C@H](CC[C@@H]4[C@@]5(C)C/C(=C/C=C/c6ccccc6)[C@H](O)C(C)(C)[C@@H]5CC[C@]43C)[C@@H]12	49
C=C(C)[C@@H]1CC[C@]2(C(=O)O)CC[C@]3(C)[C@H](CC[C@@H]4[C@@]5(C)C/C(=C\c6ccc(OC)cc6)[C@H](O)C(C)(C)[C@@H]5CC[C@]43C)[C@@H]12	67
C=C(C)[C@@H]1CC[C@]2(C(=O)O)CC[C@]3(C)[C@H](CC[C@@H]4[C@@]5(C)C/C(=C\c6cccc(Br)c6)C(=O)C(C)(C)[C@@H]5CC[C@]43C)[C@@H]12	35
C=C(C)[C@@H]1CC[C@]2(C(=O)O)CC[C@]3(C)[C@H](CC[C@@H]4[C@@]5(C)C/C(=C\c6c(Cl)cccc6Cl)C(=O)C(C)(C)[C@@H]5CC[C@]43C)[C@@H]12	15
